Catalogue of max response values
Tested on: NIH3T3
Assay method text: Cytotoxic Profiling of Annotated Libraries Using Quantitative High-Throughput Screening (AID 1296008); also: % is scaled to controls: 0 for no effect and ±100 for the full control effect; nearly all actives have a fitted effect of over 60% in size
Setup conditions: Five cell lines viability, CellTiter-Glo ATP luminescence, 48-72 h; hits give low values
Inconclusive results are not listed.
Entry rule: numbers only, all in %.

Worked cases, answers included:
Give the measured max response of C=C1CCC2C(C)(C(=O)O)CCCC2(C)C1CCC(C)CC(=O)O (stereo not drawn) .
-9.77

Quick one: max response for CC1(C(=O)O)CCCC2(C)C3CCC4CC3(CCC12)CC4=O (stereo not drawn) ?
-6.02

Could you share which max response value was measured for COC(=O)C1=C2Nc3ccccc3C23CCN2CCCC(C(C)O)(C1)C23 (stereo not drawn) ?
1.02

Further cases:
May I ask what max response has been recorded for Nc1nc(-n2cc(C(=O)O)c(=O)c3cc(F)c(N4CC(O)C4)c(Cl)c32)c(F)cc1F ?
2.73

Given the compound Cc1nc2sc(C(=O)NCc3ccncc3)c(N)c2c(C)c1Cl , what is its reported max response?
-29.7

I would be grateful if you could share the reported max response for CC(C)C1=CC2C(CC[C@]2(C)O)[C@](C)(O)CC1 (stereo partly drawn) .
2.57

----------
Test system: CAOV3
Assay method text: Primary qHTS to identify gynecologic anti-cancer compounds using libraries of approved drugs and bioactive compounds (AID 1345084); also: % is scaled to controls: 0 for no effect and ±100 for the full control effect; nearly all actives have a fitted effect of over 55% in size
Setup conditions: Gynecologic cancer cell panel viability, ATPlite luminescence, 48 h; series mostly up to 57.5 µM
Inconclusive results are not listed. The source made the active and inactive calls. Calls follow the shape of the dose curve; as a rule, active = well fitted cell-killing curve with a large enough effect; inconclusive = small, poorly fitted or top-dose-only effect, or effect the other way; inactive = flat fitted curve, though single readings scatter.
activity change, negative = cytotoxicity listing for selected compounds.

Use the examples below as a reference point.
What does the data say about its activity change, negative = cytotoxicity? Entry: CC1(C)CC[C@]2(C(=O)O[C@@H]3O[C@H](CO[C@@H]4O[C@H](CO)[C@@H](O)[C@H](O)[C@H]4O[C@@H]4O[C@H](CO)[C@@H](O)[C@H](O)[C@H]4O)[C@@H](O)[C@H](O[C@@H]4O[C@H](CO)[C@@H](O)[C@H](O)[C@H]4O)[C@H]3O)CC[C@]3(C)C(=CCC4[C@@]5(C)CC[C@@H](O)[C@@](C)(C(=O)O[C@@H]6O[C@H](CO)[C@@H](O)[C@H](O)[C@H]6O)C5CC[C@]43C)[C@@H]2C1 (stereo partly drawn)
2.18% [at 6.55 µM] (inactive)

For the compound shown here, C[C@@H]1CC[C@]2(C(=O)O[C@@H]3O[C@H](CO)[C@@H](O)[C@H](O)[C@H]3O)CC[C@]3(C)C(=CCC4[C@@]5(C)C[C@@H](O)[C@H](O)[C@@](C)(C(=O)O[C@H]6[C@H](O)C[C@@]7(C)C(CC[C@]8(C)C7CC=C7[C@H]9[C@](C(=O)O[C@@H]%10O[C@H](CO)[C@@H](O)[C@H](O)[C@H]%10O)(CC[C@@H](C)[C@@]9(C)O)CC[C@]78C)[C@@]6(CO)C(=O)O)C5CC[C@]43C)[C@@H]2[C@]1(C)O (stereo partly drawn) , give the reported activity change, negative = cytotoxicity.
6.22% [at 6.55 µM] (inactive)

Now let's try a different one.
// activity change, negative = cytotoxicity lookup, key: C/C=C(\C)C(=O)O[C@@H]1CC2[C@@H](CC=C3C[C@@H](O[C@H]4C[C@H](OC)[C@H](O[C@H]5C[C@H](OC)[C@H](O[C@@H]6O[C@H](C)[C@@H](O[C@H]7C[C@H](OC)[C@H](O[C@@H]8O[C@H](CO)[C@@H](O)[C@H](O)[C@H]8O)[C@@H](C)O7)[C@H](OC)[C@H]6O)[C@@H](C)O5)[C@@H](C)O4)CC[C@@]32C)[C@@]2(O)CC[C@H](C(C)=O)[C@@]12C (stereo partly drawn)
9.95% [at 6.55 µM] (inactive)
